Each recorded value in this set is attributed to paper PMC12567248.

ASSAY EXPLANATION: Tissue distribution of syringic acid in liver and kidney
Assay type: in vivo, Sprague Dawley rats
REPORTED CONDITIONS: Sprague Dawley, rat, liver, ip, 25 mg kg^−1
OUTCOME MEASURE: half-life (h)
Note: unit h is implicit; provide only the numeric part.

Which value of half-life has been reported for COc1cc(C(=O)O)cc(OC)c1O [Syringic Acid, 3,5-Dimethoxy-4-hydroxybenzoic acid] in the records?
30.9

###

ASSAY EXPLANATION: Tissue distribution of syringic acid in liver and kidney
Assay type: in vivo, Sprague Dawley rats
REPORTED CONDITIONS: Sprague Dawley, rat, liver, ip, 25 mg kg^−1
OUTCOME MEASURE: Tmax (min)
Provide only the numeric value, understood in min.

Item COc1cc(C(=O)O)cc(OC)c1O [Syringic Acid, 3,5-Dimethoxy-4-hydroxybenzoic acid] has what recorded Tmax?
24.7
